test: Cytotoxicity in mock-infected human MT4 cells assessed as reduction in cell viability by MTT assay; type: cell-based
assayEndpoint: CC50 (µM)
Just the number in µM, nothing appended.

Requested read-out: CC50. Entry: Cc1cc(C#N)cc(C)c1Oc1cnc(N)c(Nc2ccc(C#N)cc2)c1
39.5

Need CC50, item Cc1cc(Cl)cc(C)c1Oc1cnc(N)c(Nc2ccc(C#N)cc2)c1
35.1

---

assay: Selectivity index, ratio of CC50 for mock-infected human MT4 cells to EC50 for antiviral activity against HIV1 3B infected in human MT4 cells; type: toxicity, cell-based; details: mock-infected (CC50) and HIV1 3B infected (EC50)
assayEndpoint: selectivity ratio

Tell me the measured selectivity ratio of Cc1cn([C@H]2C[C@H](N=[N+]=[N-])[C@@H](CO)O2)c(=O)[nH]c1=O , please.
> 1290

# selectivity ratio lookup, item Cc1cccc(C)c1Nc1cnc([N+](=O)[O-])c(Nc2ccc(C#N)cc2)c1
6

Reported selectivity ratio for Cc1cc(Br)c(Oc2cnc([N+](=O)[O-])c(Nc3ccc(C#N)cc3)c2)c(Br)c1 : what is it?
1680

Quick check: selectivity ratio of Cc1cc(Br)cc(C)c1Oc1cnc([N+](=O)[O-])c(Nc2ccc(C#N)cc2)c1 ?
> 64

Suppose we examine the compound N#Cc1ccc(Nc2cc(Oc3c(F)cc(F)cc3F)cnc2[N+](=O)[O-])cc1 ; what selectivity ratio value has been reported?
> 320

---

molecular target: UniProt:Q72547; test: Inhibition of recombinant wild type HIV1 reverse transcriptase p66/p51 assessed as reduction in biotin-dUTP incorporation incubated for 40 mins using poly(rA) template and oligo(dT)16 primer by picogreen dye based spectrofluorometry
assayEndpoint: IC50 (nM)
I only need the number, in nM, no unit after it.

Hi! What's the reported IC50 for N#Cc1ccc(Nc2cc(Oc3c(Cl)cc(Cl)cc3Cl)cnc2N)cc1 on UniProt:Q72547?
160

Can you look up IC50 on UniProt:Q72547 for Cc1cc(C)c(Nc2cnc([N+](=O)[O-])c(Nc3ccc(C#N)cc3)c2)c(C)c1 ?
650

Find IC50 (UniProt:Q72547) for the entry COc1cccc(OC)c1Oc1cnc(N)c(Nc2ccc(C#N)cc2)c1
146000

// map N#Cc1ccc(Nc2cc(Oc3c(Br)cc(Br)cc3Br)cnc2N)cc1 to recorded IC50 (system: UniProt:Q72547)
170

Which measured IC50 belongs to Cc1cc(C#N)cc(C)c1Oc1cnc(N)c(Nc2ccc(C#N)cc2)c1 , tested on UniProt:Q72547?
170

What is its IC50 for UniProt:Q72547? Entry: Cc1cccc(C)c1Oc1cnc(N)c(Nc2ccc(C#N)cc2)c1
910

---

biological target: UniProt Q72547; assay: Inhibition of recombinant wild type HIV1 reverse transcriptase p66/p51 assessed as reduction in biotin-dUTP incorporation incubated for 40 mins using poly(rA) template and oligo(dT)16 primer by picogreen dye based spectrofluorometry
assayEndpoint: IC50 (nM)
Just the number in nM, nothing appended.

Test system UniProt Q72547; read-out IC50; what value for Cc1cc(Cl)cc(C)c1Oc1cnc(N)c(Nc2ccc(C#N)cc2)c1 ?
310

// lookup IC50 | system=UniProt Q72547 | key= Cc1cc(Br)c(Oc2cnc(N)c(Nc3ccc(C#N)cc3)c2)c(Br)c1
50

IC50 of Cc1cc(Br)cc(C)c1Oc1cnc(N)c(Nc2ccc(C#N)cc2)c1 on UniProt Q72547?
260

Missing value: IC50, UniProt Q72547, entry Cc1cc(Br)c(Oc2cnc([N+](=O)[O-])c(Nc3ccc(C#N)cc3)c2)c(Br)c1 . Fill in?
280

Record lookup: for UniProt Q72547, what IC50 belongs to Cc1cc(C)c(Oc2cnc(N)c(Nc3ccc(C#N)cc3)c2)c(C)c1 ?
90
